# TARGET_OR_SYSTEM: full-length human PLD2 (Homo sapiens (Human))
# ASSAY_SUMMARY: Evaluation of human PLD2 enzyme inhibitory activity (Amplex Red / choline oxidase fluorescence)
# Type: biochemical
# RECORDED_CONDITIONS: full-length human PLD2 enzyme; read-out: PLD2 IC50
So basically: is IC50 under 0.03 µM? Then yes. Not under? Then no.

{"COMPOUND": "CNC1(C(=O)N[C@@H](C)C[C@H]2CC[C@]3(CC2)OC(=O)NN=C3c2ccc(F)cc2Br)COC1", "CLASS_ASSIGNMENT": "no"}
{"COMPOUND": "Cc1cc(F)ccc1C1=NNC(=O)O[C@]12CC[C@@H](C[C@H](C)NC(=O)N1CC[C@H](c3ccccc3)C1)CC2", "CLASS_ASSIGNMENT": "no"}
{"COMPOUND": "CNC(=O)C(=O)N[C@@H](C)C[C@H]1CC[C@]2(CC1)OC(=O)NN=C2c1ccc(S(C)(=O)=O)cc1Br", "CLASS_ASSIGNMENT": "yes"}
{"COMPOUND": "C[C@@H](C[C@H]1CC[C@]2(CC1)OC(=O)NN=C2c1ccc(F)cc1Br)NC(=O)[C@@H](C)O", "CLASS_ASSIGNMENT": "no"}
{"COMPOUND": "CNC(=O)C(=O)N[C@@H](C)C[C@H]1CC[C@]2(CC1)OC(=O)NN=C2c1cnc(OC)cc1C", "CLASS_ASSIGNMENT": "yes"}

## Task Does C[C@@H](C[C@H]1CC[C@]2(CC1)OC(=O)NN=C2c1ccc(F)cc1Br)NC(=O)c1cc(C(F)(F)F)n[nH]1 have IC50 strictly under 0.03 µM?
## Result yes

## Task I'd appreciate it if you could check whether CNC(=O)C(=O)N[C@@H](C)C[C@H]1CC[C@]2(CC1)OC(=O)NN=C2c1cc(OC)c(F)cc1Br has IC50 smaller than 0.03 µM.
## Result yes

## Task I wonder whether CNC(=O)C(=O)N[C@@H](C)C[C@H]1CC[C@]2(CC1)OC(=O)NN=C2c1cc(Br)ccc1C has IC50 below 0.03 µM. Can you tell?
## Result yes

## Task IC50 under 0.03 µM? Item: CNC(=O)C(=O)N[C@@H](C)C[C@H]1CC[C@]2(CC1)OC(=O)NN=C2c1cnc(N2CCOCC2)cc1Cl
## Result yes

## Task A record lists CNC(=O)C(=O)N[C@@H](C)CN1CCC2(CC1)OC(=O)NN=C2c1cccn2nccc12 . Is its IC50 below 0.03 µM?
## Result no

## Task For this compound, is IC50 lower than 0.03 µM? C[C@H](O)C(=O)N[C@@H](C)C[C@H]1CC[C@]2(CC1)OC(=O)NN=C2c1ccc(F)cc1Br
## Result no

* * *

# TARGET_OR_SYSTEM: full-length human PLD2 (Homo sapiens (Human), UniProt O14939)
# Sequence (O14939 whole entry): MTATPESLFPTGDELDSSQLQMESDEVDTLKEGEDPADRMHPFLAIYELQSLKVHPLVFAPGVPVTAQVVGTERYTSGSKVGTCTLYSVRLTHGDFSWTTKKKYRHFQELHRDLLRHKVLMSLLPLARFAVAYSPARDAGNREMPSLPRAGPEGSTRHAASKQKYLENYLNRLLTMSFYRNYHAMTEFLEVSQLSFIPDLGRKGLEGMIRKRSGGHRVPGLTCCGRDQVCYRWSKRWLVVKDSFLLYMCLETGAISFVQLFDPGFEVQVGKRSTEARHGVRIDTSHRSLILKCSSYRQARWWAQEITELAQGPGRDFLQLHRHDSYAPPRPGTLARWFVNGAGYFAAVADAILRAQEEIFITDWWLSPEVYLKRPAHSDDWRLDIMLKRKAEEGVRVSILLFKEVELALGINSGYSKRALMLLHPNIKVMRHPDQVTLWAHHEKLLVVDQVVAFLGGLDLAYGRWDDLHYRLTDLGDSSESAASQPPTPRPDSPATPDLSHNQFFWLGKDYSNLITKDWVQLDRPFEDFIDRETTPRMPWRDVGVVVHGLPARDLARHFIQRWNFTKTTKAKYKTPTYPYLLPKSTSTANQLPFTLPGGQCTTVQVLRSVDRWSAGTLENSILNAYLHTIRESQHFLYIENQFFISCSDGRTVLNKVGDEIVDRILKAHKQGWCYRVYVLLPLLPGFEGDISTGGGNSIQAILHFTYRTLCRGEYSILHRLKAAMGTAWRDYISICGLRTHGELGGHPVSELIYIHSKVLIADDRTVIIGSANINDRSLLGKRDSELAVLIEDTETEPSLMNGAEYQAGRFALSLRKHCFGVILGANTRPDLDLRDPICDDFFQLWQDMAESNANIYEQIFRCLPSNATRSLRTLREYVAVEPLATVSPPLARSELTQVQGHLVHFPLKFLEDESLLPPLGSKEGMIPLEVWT
# ASSAY_SUMMARY: Evaluation of human PLD2 enzyme inhibitory activity (Amplex Red / choline oxidase fluorescence)
# Assay type: biochemical
# RECORDED_CONDITIONS: read-out: inhibition rate of PLD2 at 10 μM compound
MEASURED_ATTRIBUTE: inhibition at 10 µM (%)
The figure you give is taken to be in %; do not add the unit.

Consider the worked cases shown below.
{"COMPOUND": "CNC(=O)C(=O)N[C@@H](C)C[C@H]1CC[C@]2(CC1)OC(=O)NN=C2c1cnc(C(=O)O)cc1C [Example 186]", "inhibition at 10 µM, %": 18}
{"COMPOUND": "CNC(=O)C(=O)N[C@H](C)C[C@H]1CC[C@@]2(CC1)OC(=O)NN=C2c1cc(C#N)ccc1Br [Example 2-150]", "inhibition at 10 µM, %": 30}

As a next step, examine the compound that follows.
## Task # lookup: inhibition at 10 µM of C[C@@H](C[C@H]1CC[C@]2(CC1)OC(=O)NN=C2c1ccc(F)cc1Br)NC(=O)OC(C)(C)C [Example 34]
## Result 17
